- target-or-test-system: recombinant human PAI-1 (Homo sapiens)
- Construct: purchased Molecular Innovations, Inc
- Sequence (P05121 24-402): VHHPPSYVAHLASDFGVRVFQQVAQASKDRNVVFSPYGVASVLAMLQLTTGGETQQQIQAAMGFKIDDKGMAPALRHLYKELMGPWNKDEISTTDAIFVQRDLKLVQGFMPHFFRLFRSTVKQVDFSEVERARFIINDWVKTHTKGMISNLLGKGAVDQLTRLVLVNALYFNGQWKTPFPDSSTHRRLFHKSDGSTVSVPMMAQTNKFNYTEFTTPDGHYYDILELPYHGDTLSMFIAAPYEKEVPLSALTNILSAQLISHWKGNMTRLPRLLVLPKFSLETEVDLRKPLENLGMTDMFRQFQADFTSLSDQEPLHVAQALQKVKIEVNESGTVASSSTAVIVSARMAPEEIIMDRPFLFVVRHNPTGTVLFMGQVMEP
- assay-explanation: Test Example 2: human PAI-1 inhibitory activity (tPA fluorogenic substrate assay, pH7.4 HEPES buffer)
- Format: biochemical
- applied-conditions: pH7.4 HEPES buffer; obtained from Table 5 results
pIC50: −log10 of the molar value.
attribute-measured: pIC50

In [3]: df
Out[3]:
                                    compound                   target_or_test_system  measured_number
 0  CCCCc1ccc(CN(C(=O)C(=O)O)c2ccc(-c3ccc(C(C)(C)C)cc3)cc2)cc1 [compound 86]  recombinant human PAI-1 (Homo sapiens)             6.14
 1  CCC(CC)Oc1ccc(-c2ccc(OC(F)(F)F)cc2)cc1N(Cc1ccc(C(C)(C)C)cc1)C(=O)C(=O)O [compound 79]  recombinant human PAI-1 (Homo sapiens)             6.13
 2  CCCCOc1ccc(-c2ccc(OC(F)(F)F)cc2)cc1N(Cc1ccc(C(C)(C)C)cc1)C(=O)C(=O)O [compound 69]  recombinant human PAI-1 (Homo sapiens)             6.06
 3  CC(C)(C)c1ccc(CN(C(=O)C(=O)O)c2ccc(Cl)c(-c3ccc(OC(F)(F)F)cc3)c2)cc1 [compound 66]  recombinant human PAI-1 (Homo sapiens)             5.94
 4  CC(C)(C)c1ccc(CN(C(=O)C(=O)O)c2cc(-c3ccc(OC(F)(F)F)cc3)cc(C(F)(F)F)c2)cc1 [compound 18]  recombinant human PAI-1 (Homo sapiens)             5.90
 5  CC(C)(C)c1ccc(COc2ccc(-c3ccc(OC(F)(F)F)cc3)cc2N(Cc2ccccc2)C(=O)C(=O)O)cc1 [compound 59]  recombinant human PAI-1 (Homo sapiens)             6.18
 6  Cc1ccc(N(Cc2ccc(C(C)(C)C)cc2)C(=O)C(=O)O)cc1-c1ccc(OC(F)(F)F)cc1 [compound 56]  recombinant human PAI-1 (Homo sapiens)             5.85
 7  CC(C)(C)c1ccc(CN(C(=O)C(=O)O)c2ccc(-c3ccc(OC(F)(F)F)cc3)cc2Cl)cc1 [compound 26]  recombinant human PAI-1 (Homo sapiens)             5.93
 8  CCN(CC)c1ccc(N(Cc2ccc(C(C)(C)C)cc2)C(=O)C(=O)O)c(-c2ccc(OC(F)(F)F)cc2)c1 [compound 88]  recombinant human PAI-1 (Homo sapiens)             5.95
 9  CC(C)(C)c1ccc(CN(C(=O)C(=O)O)c2cccc(Oc3ccc(OC(F)(F)F)cc3)c2)cc1 [compound 52]  recombinant human PAI-1 (Homo sapiens)             5.74
10  CC(C)(C)c1ccc(CN(C(=O)C(=O)O)c2ccc(-c3ccc(OC(F)(F)F)cc3)cc2)cc1 [compound 8]  recombinant human PAI-1 (Homo sapiens)             5.79
